Values compiled from patent US20260125454A1.

- MEASUREMENT TARGET: T1, Biotin-huCGRPaSA (human, not fully specified; biotin (position not given))
- T1 construct: exact construct ('aSA') not explained; also called Biotin CGRPaSA; full-length (1-37) CGRP
- T1 peptide: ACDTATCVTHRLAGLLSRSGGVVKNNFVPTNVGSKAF
- ASSAY COMMENT: ELISA, supernatant; relative to chimeric C245
Labelling field: enter Criterion met if recorded Relative binding activity, % is less than 80%. Enter Criterion not met if it equals or exceeds that cut-off.

Answered cases to consult:
hu148 (antibody, V domains shown, 3E5 HC-1/1F5 LC1-1) VH: QVQLVQSGAEVKKPGASVKVSCKTSGYTFTDYNMHWVRQAPGQRLEWMGYISPYNGGTAYNQKFKFRVTLTVDTSSSTAYMELSSLRSEDTAVYYCAREGLGGYWGQGTLVTVSS VL: EIVLTQSPATLSLSPGERATLSCKASQNIDFDGYAYMNWYQQKPGQAPRVLIYSVFNLESGIPARFSGSGSGTDFTLTISSLEPEDFAVYYCQQSHEVPYTFGQGTKLEIK :: Criterion not met
hu215 (antibody, V domains shown, 3H10 HC-2/1F5 LC1-3) VH: QVQLVQSGAEVKKPGASVKVSCKASGYTFTDYNMHWVRQAPGQGLEWMGYIYPYNGHTVYNQKFRNRVTLTVDTSSSTAYMELRSLRSDDTAVYYCAREGLGGYWGQGTLVTVSS VL: DIVLTQSPASLAVSPGQRATITCKASQNIDFDGYAYMNWYQQKPGQPPKVLIYSVFNLESGVPARFSGSGSGTDFTLTINPVEADDTANYYCQQSHEVPYTFGQGTKLEIK :: Criterion not met

Could you now look at the following binder, please?
## Task # check: Relative binding activity, % < 80% for hu203 (antibody, V domains shown, 3H10 HC-1/1F5 LC1-4) VH: QVQLVQSGAEVKKPGASVKVSCKASGYTFTDYNMHWVRQAPGQGLEWMGYIYPYNGHTVYNQKFRNRVTMTVDTSSSTAYMELRSLRSDDTAVYYCAKEGLGGYWGQGTLVTVSS VL: DIVLTQSPDSLAVSLGERATINCKASQNIDFDGYAYMNWYQHKPGQPPKVLIYSVFNLESGVPDRFSGSGSGTDFTLTISSLQAEDVAVYYCQQSHEVPYTFGQGTKLEIK
## Result Criterion met
